This collection of values is drawn from a melting point compilation (Tetko et al.; mined from patent text by program, amines drawn as free bases though some values may be those of a salt).

ATTRIBUTE MEASURED: melting point

Exercise: Requested field: melting point. Item: CC(C)(C)c1nc2cc(N3CCNCC3)c([N+](=O)[O-])cc2s1
Solution: 144 to 146 °C

Exercise: Also need COc1ccccc1C(=O)c1cccc2c1ccn2S(=O)(=O)c1ccc(C)cc1 , thanks.
Solution: 154 °C

Exercise: Also need CC(C)(C)c1cc2c(c(C(C)(C)C)c1)OC(=O)C2c1ccc(C(F)(F)F)cc1 (centres undefined) , thanks.
Solution: 127 to 128 °C

Exercise: Also need CC#CCOc1ccc(S(=O)(=O)C2(C(=O)O)CCN(C(CC)CC)CC2)cc1 , thanks.
Solution: 98 °C

Exercise: Also need Cc1nc(-c2cnc3[nH]cc(C(=O)N[C@@H](C(=O)N4CC(C#N)C4)C(C)(C)C)c3n2)cn1-c1cc(F)cc(F)c1 , thanks.
Solution: 187 to 190 °C

Exercise: Also need O=C(NC(=O)c1c(Cl)cccc1Cl)Nc1cc(-c2ccc(C(F)(F)F)cc2)on1 , thanks.
Solution: 227 to 230 °C

###

ATTRIBUTE MEASURED: melting point

Worked cases, melting point given:
>>> print(df.to_string())
                                   compound  attribute_measured         result
0            Cc1cccc(-c2nc(=O)c3ccccc3s2)n1       melting point         170 °C
1  NC(=O)C1(O)c2ccccc2S(=O)(=O)N1Cc1ccc(Br)cc1 (stereo not drawn)       melting point  166 to 168 °C
2  CCOC(=O)CCCNc1cccc(/C=C/c2nc3ccccc3s2)c1       melting point    68 to 69 °C
3  CCCn1c(=O)n(C2CCN(C(=O)OC(C)(C)C)CC2)c2ccccc21       melting point  102 to 105 °C
4  COC(C)CCC1(O)C2=NCCCN2c2cc(Cl)ccc21 (stereo not drawn)       melting point  146 to 148 °C
5  Cc1cc(N2CCN(c3ccc(C(F)(F)F)cn3)CC2)cc(C)c1O       melting point  143 to 144 °C

Exercise: Requested field: melting point. Item: C=C(Cn1cncn1)Cn1cncn1
Solution: 52 °C

Exercise: Also need CCc1nc(NC)sc1-c1ccncc1 , thanks.
Solution: 146 to 149 °C

###

ATTRIBUTE MEASURED: melting point

>>> print(df.to_string())
                                   compound  attribute_measured         result
0  COCCc1nc2c(N)nc3c(c2n1CCOCCNC(=O)Nc1ccccc1)CCCC3       melting point  180 to 182 °C
1  CCSC1=C(c2ccc(O)cc2)C(=O)c2cc(O)cc(O)c21       melting point    75 to 77 °C
2          COc1ccc(N2c3ccccc3Sc3ccccc32)cc1       melting point  173 to 176 °C
3    COc1cc2nc(N)nc(-c3ccc(Br)cc3CO)c2cc1OC       melting point  222 to 223 °C
4  Cc1cc(C(=O)NCCO)ncc1C(c1c(F)ccc(F)c1F)S(=O)(=O)CCC(F)(F)F (stereo unspecified)       melting point  146 to 147 °C

Exercise: Requested field: melting point. Item: C=C(c1ccc(-c2cc[nH]n2)cc1)C(O)(Cn1cncn1)c1ccc(F)cc1F (stereo unspecified)
Solution: 182 to 184 °C

###

Listed below: melting point values for each entry.

In [3]: df
Out[3]:
                                   molecule         result
0  COc1ccc(C)cc1N1CCN(C(=O)Nc2cc3ccccc3nc2OC)CC1  115 to 116 °C
1                       Cn1cc(C#N)c(Br)c1Br  138 to 139 °C
2  O=C1CCC(CCO)(c2ccc(F)c(F)c2)CN1Cc1cc(C(F)(F)F)cc(C(F)(F)F)c1 (configuration not stated)         120 °C
3              COc1ccc2c(C(=O)O)ccc(OC)c2c1  227 to 229 °C
4  COc1ccccc1Oc1c(NS(=O)(=O)c2ccc(C(C)(C)C)cc2)ncnc1OCCO  143 to 148 °C
5       Cc1cc(C(=NO)c2cccs2)cc(C)c1OCC(=O)O         152 °C

Exercise: Requested field: melting point. Item: Cc1c(N[C@@H](c2nnc(-c3ccc(F)c(O)c3)o2)[C@H](C)O)ccc(C#N)c1Cl
Solution: 103 to 108 °C

Exercise: Also need C=C1CCC2C3CCC4CC(OC(C)=O)CCC4(C)C3C(=O)CC12C (configuration not stated) , thanks.
Solution: 140 to 141 °C

Exercise: Also need Nc1nc(=O)c2ccccc2n1Cc1ccc(F)cc1 , thanks.
Solution: 170 °C

###

ATTRIBUTE MEASURED: melting point

>>> print(df.to_string())
                                   molecule         result
0  COC(=O)c1ccc2c([N+](=O)[O-])cc3c(c2c1)C(CCl)CN3 (stereo not given)  161 to 163 °C

Exercise: Requested field: melting point. Item: CC(=O)OC1CSC(Oc2ccc3cc[nH]c3c2)C(OC(C)=O)C1OC(C)=O (stereo not given)
Solution: 172 to 175 °C

Exercise: Also need CON(C)Cc1nc2cnc3ccccc3c2n1CC1CCOCC1 , thanks.
Solution: 142 to 144 °C

###

ATTRIBUTE MEASURED: melting point

Exercise: Requested field: melting point. Item: COC(=O)c1cc2cc(C(=O)c3cccc(C(C)C(=O)OC)c3)sc2s1 (configuration not stated)
Solution: 122 °C

Exercise: Also need CC(=O)Nc1c(OC(C)=O)cc2c(c1[N+](=O)[O-])CCC2 , thanks.
Solution: 168 to 170 °C

Exercise: Also need CCOC(=O)c1ccc(NC(=O)CC(c2ccc(Cl)cc2)c2ccc(Cl)cc2)cc1 , thanks.
Solution: 152 to 155 °C

Exercise: Also need O=C(O)C(=O)c1ccc(OCCOc2ccc3ccccc3c2)cc1Cl , thanks.
Solution: 152 to 153 °C

Exercise: Also need CCOC(=O)C(=O)CC(=O)/C=C/c1ccc(Cl)c(OC)c1F , thanks.
Solution: 67.5 to 69 °C

Exercise: Also need COc1ccc(CONC(=O)Cn2nnnc2S)cc1 , thanks.
Solution: 167 to 168 °C

Exercise: Also need CCCc1nn(C)c2c(=O)[nH]c(-c3cc(C(=O)N4CCN(C)CC4)ccc3OCC)nc12 , thanks.
Solution: 196 to 197 °C

Exercise: Also need O=C1c2ccccc2C(=O)c2c(NCCN3CCCCC3)ccc(NCCN3CCCCC3)c21 , thanks.
Solution: 140 to 141 °C

Exercise: Also need NC(=O)c1cc(-n2cnn(Cc3ccc(F)cc3)c2=O)n[nH]1 , thanks.
Solution: > 270 °C

Exercise: Also need CON1C(=O)CC2(CCN(CCNC(=O)c3cccnc3)CC2)C1=O , thanks.
Solution: 112 to 119 °C

Exercise: Also need CCCc1cc(CCC)c2oc(C(=O)c3ccc(OC)cc3)c(C)c2c1O , thanks.
Solution: 119 to 121 °C

Exercise: Also need COc1ccc(-c2cn[nH]c2N)cc1 , thanks.
Solution: 198 to 201 °C

###

ATTRIBUTE MEASURED: melting point

                           compound  attribute_measured         result
0  Cc1ccc(Cc2c[nH]c(=S)[nH]c2=O)cn1       melting point  240 to 241 °C

Exercise: Requested field: melting point. Item: CCN(CC)C(=O)c1ccc[nH]1
Solution: 78.6 to 79.9 °C

Exercise: Also need CC1Sc2c(C(=O)O)c(=O)c3cc(F)c(N4CCN(C)CC4)c(F)c3n21 (configuration not stated) , thanks.
Solution: 238 °C

Exercise: Also need CN1CCN(CCCNc2ccccc2N)CC1 , thanks.
Solution: 65 to 67 °C

Exercise: Also need NS(=O)(=O)c1cc2c(Cl)c(O)ccc2s1 , thanks.
Solution: 198 to 201 °C

Exercise: Also need COc1cc(N)ccc1NC(=O)c1ccc(N)cc1 , thanks.
Solution: 160 to 161 °C

Exercise: Also need CN(C)CCNc1ncc(C(=O)N(C)Cc2cc(C(F)(F)F)cc(C(F)(F)F)c2)c(-c2ccccc2)n1 , thanks.
Solution: 110 °C

###

Listed below: melting point values for each entry.

Worked cases, melting point given:
                              sample_smiles         result
0  CCc1c(-c2ccc(OCc3ccccc3)cc2)c2ccc3c(OC)ccc1n32    78 to 81 °C
1          O=C(c1ccc(N2CCOCC2)cc1O)C(F)(F)F    81 to 82 °C
2  Cn1c(=O)c(-c2ccc(Cl)cc2Cl)cc2c3cc(C=NO)ccc3n(C)c21  287 to 290 °C

// next entry
Exercise: Requested field: melting point. Item: ClCCCOc1cccc2cccnc12
Solution: 69 to 71 °C
